Form field: polymerase ribozyme fitness (log ratio) (one value per entry).
B1: TPR t1 (parent)
chain: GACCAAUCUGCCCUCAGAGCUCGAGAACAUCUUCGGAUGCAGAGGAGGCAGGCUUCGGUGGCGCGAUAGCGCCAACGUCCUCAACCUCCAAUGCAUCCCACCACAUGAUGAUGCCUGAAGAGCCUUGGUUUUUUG

Variants of: B1
METHOD: polymerase ribozyme fitness, log enrichment relative to wild type (log ratio); higher = more active; in vitro selection for triplet polymerase activity

Check out these entries, answers already filled in.
{"VAR": "A2G G110U A118G", "MEASUREMENT_NAME": "polymerase ribozyme fitness (log ratio)", "RESULT": -1.67}
{"VAR": "C3U U7C A18C G52A C72U C94A", "MEASUREMENT_NAME": "polymerase ribozyme fitness (log ratio)", "RESULT": -4.4}
{"VAR": "G65C C123G", "MEASUREMENT_NAME": "polymerase ribozyme fitness (log ratio)", "RESULT": -3.83}
{"VAR": "G48C A75G", "MEASUREMENT_NAME": "polymerase ribozyme fitness (log ratio)", "RESULT": -0.575}

// sample C89A G93A , its polymerase ribozyme fitness (log ratio) was -2.99

// sample C15G C22U A37G U38G G63C G110C , its polymerase ribozyme fitness (log ratio) was -5.93

// sample C8U G71U U78C C98U A119U , its polymerase ribozyme fitness (log ratio) was -1.03

// sample C13U A50C , its polymerase ribozyme fitness (log ratio) was -0.095

// sample C11A U132A , its polymerase ribozyme fitness (log ratio) was -2.12

// sample G52C G63A C102U C104A , its polymerase ribozyme fitness (log ratio) was -3.27

// sample A5U G35U , its polymerase ribozyme fitness (log ratio) was -5.72

// sample U7A U55G , its polymerase ribozyme fitness (log ratio) was -0.938

// sample G35A C64U U87G , its polymerase ribozyme fitness (log ratio) was -4.86
